- study target: T1, human BCMA with a His tag (ACROBiosystems, Catalog No.: BCA-H522y) (human)
- T1 construct: Bought His-tagged recombinant protein; also called huBCMA-His; Recombinant human BCMA
- T1 chain: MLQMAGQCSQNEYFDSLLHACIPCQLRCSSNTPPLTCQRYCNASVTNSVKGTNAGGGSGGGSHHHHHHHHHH
- test method notes: SPR, Biacore T200
Listed next: entries and their corresponding kon.

binder	kon
SCT-Aa15(h/h) (antibody, V domains shown, Full IgG format, chimeric: human IgG1 heavy chain constant region, human kappa light chain constant region) VH: QVQLQQSDAELVKPGPSVKISCKVSGSTFTDHTVHWMKQRPEQGLEWIGYVYPRDGSTRYNEKFKGKATLTADKSSSTAYMQLNSLTSEDSAVYFCARWDYEGFDYWGQGTTLTVSS VL: DIVMTQSPATLSVTPGDRVSLSCRASQNISDYLHWYQQKSHESPRLLIKYASQSISGIPSRFSGSGSGSDFTLSINSVEPEDVGVYYCQNGHSFPPTFGSGTKLKIK	5.21e+06 M⁻¹ s⁻¹

q: Which kon value belongs to SCT-Aa11(m/m) (antibody, V domains shown, Full IgG format: mouse IgG1 heavy chain constant region, mouse kappa light chain constant region) VH: QVQLQQSDAELVKPGASVKISCKVSGYTFTDHTIHWMKQRPEQGLEWIGYIFPRDGTTKFNEMFKGKATLTADKSSSTAYMELNSLTSEDSAVYFCARWDYEGFDYWGQGTTLTVSS VL: DIVMTQSPATLSVTPGDRVSLSCRASQSISDYLHWYQQKSHESPRLLIKYASQFISGIPSRFRGSGSGSDFTLSINSVEPEDVGVYYCQNGHSFPPTFGSGTKLEIK ?
a: 2.25e+06 M⁻¹ s⁻¹

q: Entry SCT-Aa01(h/h) (antibody, V domains shown, Full IgG format, chimeric: human IgG1 heavy chain constant region, human kappa light chain constant region) VH: DVQLQESGPGLVKPSQSLSLTCSVTGYSITSGYYWNWIRQFPGNKLEWMGYIRYDGSNNYNPSLKNRISITRDTSKNQFFLKLNSVTTEDTATYYCAPYDYDYAMDFWGQGTSVTVSS VL: DIQMTQSPASLSASVGETVTITCRASGNIHNYLAWYQQKQGKSPQLLVYNAKTLAHGVPSRFSGSGSGTQYSLKITSLQPEDFGTYYCQHFWSTPFTFGSGTKLEIK : reported kon = ?
a: 819000 M⁻¹ s⁻¹
